- assay: chemical genetic growth profiling, strain panel (AID 1159580);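 note: tested at 20 µM; growth read once vehicle control cultures reached saturation at 30 °C; 1 = growth at the plate median or of vehicle wells; lower values mean less growth of the strain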
- assay setup: S. cerevisiae deletion strains, growth OD, locus YCL016C, strain dcc1
The whole screen tested about 5,500 compounds, of which about 2,000 (36%) were called active. Roughly 18% stayed inconclusive and do not appear here. Cut-off read from the data, not from the text of the source: active = normalized growth mostly below about 0.91 (no sharp cut-off); inconclusive = no clear call, values can overlap the other calls; inactive = mostly above about 0.92. The list shows a part of the results.
Outcome field: choose from active, inactive

# count of solved cases: 4
{"molecule": "C=C1C[C@]23C[C@@]1(O)CC[C@H]2[C@@]12C=C[C@H](O)[C@@](C)(C(=O)O1)[C@H]2[C@@H]3C(=O)O", "cat": "inactive"}
{"molecule": "CC(=O)O[C@@H]1CC2C(C)(C)C(=O)C=C[C@]2(C)C2CC[C@]3(C)C(=CC(=O)O[C@H]3c3ccoc3)[C@@]21C (stereo partly specified)", "cat": "inactive"}
{"molecule": "CCC(C)C(=O)OC1[C@@H]2CC3=C4CC(=O)O[C@@H](c5ccoc5)[C@]4(C)CCC3[C@@](C)(C2=O)[C@@H](CC(=O)OC)C1(C)C (stereo partly specified)", "cat": "inactive"}
{"molecule": "COC1CC2CCC(C)C(O)(O2)C(=O)C(=O)N2CCCCC2C(=O)OC(C(C)CC2CCC(O)C(OC)C2)CC(=O)C(C)/C=C(\\C)C(O)C(OC)C(=O)C(C)CC(C)/C=C/C=C/C=C/1C (stereo unspecified)", "cat": "active"}

Recorded call for `CC(C)=CCc1c2c(c3occ(-c4ccc(O)cc4)c(=O)c3c1O)C=CC(C)(C)O2` ?
active

Recorded call for CC(=O)O[C@@H]1C=C[C@@]2(C)C(C[C@@H](OC(C)=O)[C@@]3(C)C4=CC(=O)O[C@@H](c5ccoc5)[C@]4(C)CCC23)C1(C)C (stereo partly specified) ?
inactive

Recorded call for `O=C(O)c1ccccc1` ?
inactive

---

Catalogue of normalized growth values
- assay: chemical genetic growth profiling, strain panel (AID 1159580)
- assay setup: S. cerevisiae deletion strains, growth OD, locus YLR330W, strain CHS5, hits give low values
Among all 5,500 compounds or so, about 2,000 (36%) were called active. Roughly 18% stayed inconclusive and do not appear here. Some of the results follow.
// no unit, no text: just the number

Below, each entry is followed by its recorded normalized growth result.
{"compound": "N=C(N)N", "normalized growth": 0.991}
{"compound": "CC(=O)Oc1ccc(O)cc1", "normalized growth": 0.914}
{"compound": "CC(=O)Oc1ccc(/C=C/c2cc(OC(C)=O)cc(OC(C)=O)c2)cc1", "normalized growth": 0.996}
{"compound": "CC(=O)Oc1cccc(O)c1", "normalized growth": 1.01}
{"compound": "Cc1cc(=O)oc2cc(O)c(O)cc12", "normalized growth": 1}

Now look at this one.
Record CN(C)C1C(=O)C(C(N)=O)=C(O)C2(O)C(=O)C3=C(O)c4c(O)ccc(Cl)c4C(C)(O)C3CC12 (stereo unspecified) . Reported normalized growth: 0.991

---

- assay: chemical genetic growth profiling, strain panel (AID 1159580)
- assay setup: S. cerevisiae deletion strains, growth OD, locus YCL061C, strain MRC1, hits give low values
Out of some 5,500 compounds screened, about 2,000 (36%) were called active. About 18% were inconclusive and are not listed. The list shows a part of the results.
measured attribute: normalized growth
// no unit, no text: just the number

Below, each entry is followed by its recorded normalized growth result.
{"compound": "CC(C)c1ccc2c(c1)CCC1C(C)(C(N)=O)CCCC21C (centres undefined)", "measured attribute": "normalized growth", "val": 0.953}
{"compound": "OC[C@H]1O[C@@H](O[C@H]2[C@H](O)[C@@H](O)[C@@H](O)O[C@@H]2CO)[C@H](O)[C@@H](O)[C@@H]1O", "measured attribute": "normalized growth", "val": 1}
{"compound": "CCCSc1ccc2nc(NC(=O)OC)[nH]c2c1", "measured attribute": "normalized growth", "val": 1.01}

Record `Cc1cc(C)c(Cn2nc(C(C)(C)C)cc2C(=O)Nc2cccc(C(F)(F)F)c2)c(C)c1` . Reported normalized growth: 0.99

Record `O=C(O)c1cc(O)c2c(c1)[C@@H]([C@H]1c3cc(C(=O)O)cc(O)c3C(=O)c3c(O[C@H]4O[C@H](CO)[C@@H](O)[C@H](O)[C@H]4O)cccc31)c1cccc(O[C@H]3O[C@H](CO)[C@@H](O)[C@H](O)[C@H]3O)c1C2=O` . Reported normalized growth: 0.987

Record `CC(C)C[C@@H](CN)CC(=O)O` . Reported normalized growth: 1.02

Record `COc1ccc([C@@H]2CC(=O)c3c(O)cc(O[C@@H]4O[C@H](CO[C@H]5O[C@@H](C)[C@H](O)[C@@H](O)[C@H]5O)[C@@H](O)[C@H](O)[C@H]4O)cc3O2)cc1O` . Reported normalized growth: 0.977

Record `CC(C)(C)c1cc(C(=O)NNC(=O)c2cc(C(F)(F)F)cc(C(F)(F)F)c2)n(Cc2ccc(F)cc2)n1` . Reported normalized growth: 1.04

Record `CCCOc1ccc2nc(NC(=O)OC)[nH]c2c1` . Reported normalized growth: 1.01

---

Catalogue of normalized growth values
- assay: chemical genetic growth profiling, strain panel (AID 1159580);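 note: tested at 20 µM; growth read once vehicle control cultures reached saturation at 30 °C; 1 = growth at the plate median or of vehicle wells; lower values mean less growth of the strain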
- assay setup: S. cerevisiae deletion strains, growth OD, locus YDL005C, strain med2, hits give low values
Among all 5,500 compounds or so, about 2,000 (36%) were called active. Not shown: some 18% with an inconclusive outcome. The list shows a part of the results.
// no unit, no text: just the number

{"molecule": "COc1ccc2cc(CCC(C)=O)ccc2c1", "normalized growth": 1.02}
{"molecule": "CC(=O)Nc1ccc(S(=O)(=O)Nc2onc(C)c2C)cc1", "normalized growth": 0.969}
{"molecule": "O=P1(N(CCCl)CCCl)NCCCO1 (stereo not given)", "normalized growth": 0.99}
{"molecule": "CC(C)(C)NCC(O)c1ccc(O)c(CO)c1 (stereo not given)", "normalized growth": 1.01}
{"molecule": "CC(=O)O[C@@H]1CC2C(C)(C)C(=O)C=C[C@]2(C)C2CC[C@]3(C)C(=CC(=O)O[C@H]3c3ccoc3)[C@@]21C (stereo not given in full)", "normalized growth": 0.995}
{"molecule": "Cc1c(C)c2c(c(C)c1O)CCC(C)(CCCC(C)CCCC(C)CCCC(C)C)O2 (stereo not given)", "normalized growth": 0.983}
{"molecule": "O=C(O)c1ccc(S(=O)(=O)N(Cl)Cl)cc1", "normalized growth": 0.996}
{"molecule": "CC(C)CCCC(C)[C@H]1CCC2C3C(=O)C=C4C[C@@H](O)CC[C@]4(C)C3CC[C@@]21C (stereo not given in full)", "normalized growth": 0.994}

Record `CC(=O)Oc1ccc(O)cc1` . Reported normalized growth: 0.978

Record `CC1=CC(=O)c2ccccc2C1=O` . Reported normalized growth: 1.03

Record COc1ccccc1OCC(O)CO (stereo not given) . Reported normalized growth: 1.04

---

Catalogue of normalized growth values
- assay: chemical genetic growth profiling, strain panel (AID 1159580);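 note: tested at 20 µM; growth read once vehicle control cultures reached saturation at 30 °C; 1 = growth at the plate median or of vehicle wells; lower values mean less growth of the strain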
- assay setup: S. cerevisiae deletion strains, growth OD, locus YNL248C, strain rpa49, hits give low values
About 2,000 (36%) of roughly 5,500 compounds were called active. Roughly 18% stayed inconclusive and do not appear here. The list shows a part of the results.
// no unit, no text: just the number

{"compound": "O=C(O)c1ccccc1", "val": 0.966}
{"compound": "OC[C@H]1O[C@@](CO)(O[C@@H]2O[C@H](CO)[C@@H](O)[C@H](O)[C@H]2O)[C@@H](O[C@@H]2O[C@H](CO)[C@@H](O)[C@H](O)[C@H]2O)[C@@H]1O", "val": 1.01}
{"compound": "C/C=C\\C1=C(C(=O)O)N2C(=O)C(NC(=O)C(N)c3ccc(O)cc3)C2SC1 (stereo unspecified)", "val": 1.02}
{"compound": "O=C(O)c1ccc(S(=O)(=O)N(Cl)Cl)cc1", "val": 1.06}
{"compound": "NC(=O)c1cccnc1", "val": 0.973}
{"compound": "CC(C)CCCC(C)[C@H]1CCC2C3C(=O)C=C4C[C@@H](O)CC[C@]4(C)C3CC[C@@]21C (stereo partly specified)", "val": 0.934}
{"compound": "OC[C@H]1O[C@@H](O[C@@H]2[C@@H](CO)O[C@](O)(CO)[C@H]2O)[C@H](O)[C@@H](O)[C@H]1O", "val": 1.03}
{"compound": "Nc1ccc(S(=O)(=O)NC(=O)c2ccccc2)cc1", "val": 1}
{"compound": "Cc1cc(=O)oc2cc(O)c(O)cc12", "val": 0.941}
{"compound": "Cc1cc(=O)oc2cc(O)cc(O)c12", "val": 0.996}

Record `O=C(NCO)c1cccnc1` . Reported normalized growth: 1

---

- assay: chemical genetic growth profiling, strain panel (AID 1159580);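 note: tested at 20 µM; growth read once vehicle control cultures reached saturation at 30 °C; 1 = growth at the plate median or of vehicle wells; lower values mean less growth of the strain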
- assay setup: S. cerevisiae deletion strains, growth OD, locus YJL168C, strain set2, hits give low values
Screen size: about 5,500 compounds; about 2,000 (36%) were called active. Not shown: some 18% with an inconclusive outcome. The list shows a part of the results.
Catalogue of normalized growth values
// no unit, no text: just the number

{"molecule": "CC(Cc1cccc(C(F)(F)F)c1)NCCOC(=O)c1ccccc1 (stereo not drawn)", "normalized growth": 1}
{"molecule": "CC1=CC(=O)c2ccccc2C1=O", "normalized growth": 0.0804}
{"molecule": "CCC(C)C(=O)OC1[C@@H]2CC3=C4CC(=O)O[C@@H](c5ccoc5)[C@]4(C)CCC3[C@@](C)(C2=O)[C@@H](CC(=O)OC)C1(C)C (stereo partly drawn)", "normalized growth": 1.01}

Record CCC(C)[C@H]1O[C@]2(C=C[C@@H]1C)C[C@@H]1C[C@@H](C/C=C(\C)[C@@H](OC3C[C@H](OC)C(O[C@H]4C[C@H](OC)[C@@H](O)[C@H](C)O4)[C@H](C)O3)[C@@H](C)/C=C/C=C3\CO[C@@H]4[C@H](O)C(C)=C[C@@H](C(=O)O1)[C@]34O)O2 (stereo partly drawn) . Reported normalized growth: 1.02

Record `CN(C)[C@@H]1C(=O)C(C(N)=O)=C(O)[C@@]2(O)C(=O)C3=C(O)c4c(O)ccc(Cl)c4[C@@](C)(O)[C@H]3C[C@@H]12` . Reported normalized growth: 1

Record `CS(=O)(=O)Nc1ccc([N+](=O)[O-])cc1Oc1ccccc1` . Reported normalized growth: 0.98

Record CN(C)C1C(=O)C(C(N)=O)=C(O)C2(O)C(=O)C3=C(O)c4c(O)ccc(Cl)c4C(C)(O)C3CC12 (stereo not drawn) . Reported normalized growth: 0.991

Record `CC(C)=CCc1c2c(c3occ(-c4ccc(O)c(O)c4)c(=O)c3c1O)C=CC(C)(C)O2` . Reported normalized growth: 0.916

Record `Cc1cc(=O)oc2cc(O)c(O)cc12` . Reported normalized growth: 1

Record CC(C)CC(NC(=O)OCC1c2ccccc2-c2ccccc21)C(=O)O (stereo not drawn) . Reported normalized growth: 1.01

Record CO[C@H]1CC(O[C@@H]2/C(C)=C/C[C@@H]3C[C@@H](C[C@]4(CC[C@H](C)[C@@H](C5CCCCC5)O4)O3)OC(=O)[C@@H]3C=C(C)/C(=N\O)[C@H]4OC/C(=C\C=C\[C@@H]2C)[C@]43O)O[C@@H](C)C1O (stereo partly drawn) . Reported normalized growth: 0.997

Record `COc1cc(C/C=C/c2ccccc2)c(OC)cc1O` . Reported normalized growth: 0.965

Record CCN1CCN(C(=O)NC(C(=O)N[C@@H]2C(=O)N3[C@@H]2SC(C)(C)[C@@H]3C(=O)O)c2ccccc2)C(=O)C1=O (stereo partly drawn) . Reported normalized growth: 1.01
